These entries and their values trace back to ChEMBL document CHEMBL3872210.

# ASSAY_SUMMARY: Selectivity index, ratio of CC50 for cytotoxicity against human HeLa cells to EC50 for photocytotoxicity against human HeLa cells
# Format: toxicity, cell-based
# CONDITION_SUMMARY: read-out: Ratio CC50/EC50
Reported values of selectivity ratio for individual entries

Examples with their reported selectivity ratio follow.
>>> result("COc1ccc(Cn2c(C(N)=O)cc3c2-c2nc(N)ncc2CCC3)cc1")
"> 88"
>>> result("COc1ccc(Cn2c(C(N)=O)cc3c2-c2nc(NC4CCCCC4)ncc2CCC3)cc1")
"> 813"
>>> result("Cn1c(C(N)=O)cc2c1-c1nc(N)ncc1CCC2")
"> 11"

q: selectivity ratio for CCOC(=O)c1cc2c(n1C)-c1nc(NC3CCCCC3)ncc1CCC2 ?
a: > 1270

q: Can you share its selectivity ratio? I mean this compound: NC(=O)c1cc2c(n1Cc1ccccc1)-c1nc(NC3CCCCC3)ncc1CCC2
a: > 463

q: May I ask what selectivity ratio has been recorded for NC(=O)c1cc2c(n1Cc1ccccc1)-c1nc(Nc3ccccc3)ncc1CCC2 ?
a: > 397

q: # input compound: CCOC(=O)c1cc2c(n1Cc1ccc(OC)cc1)-c1nc(NC3CCCCC3)ncc1CCC2 ; wanted: its selectivity ratio
a: > 1360
